src = the supplement of paper PMC11624193

TESTED ON: PARP1 L713F-nLuc biosensor (HCT116)
ASSAY DETAILS: PARP1 L713F-nLuc/akaLuc ratio relative to DMSO control (biosensor stabilization) (fold change); higher = more PARP1 biosensor stabilization (target engagement / stabilizer), active = hit call of the paper
ASSAY CONDITIONS: stock concentration (mM; final µM = stock mM x 1): 10; 24 h
Everything with PARP1 L713F-nLuc/akaLuc ratio lower than 0.7 is 0; everything else, including exactly 0.7, is 1.

COc1cc2nc(N3CCCN(C)CC3)nc(NC3CCN(Cc4ccccc4)CC3)c2cc1OC: 0
Cc1cc(-c2nc(-c3ccc(OC(F)(F)F)cc3)no2)nn1Cc1ccnc(N2CCN(C3CC3)CC2)c1: 0
CCOC(=O)c1cnc(NC2(c3ccccc3)CC2)nc1: 1
COc1cc2ncnc(Nc3ccc(NC(=O)c4ccccc4)cc3)c2cc1OC: 1
COc1cccc(-n2c(=O)[nH]c3cc(Cl)n(-c4ccc(-c5cccc(OC)c5O)cc4)c3c2=O)c1: 1

// inclusive: PARP1 L713F-nLuc/akaLuc ratio at least 0.7? input: `C/C(=N\NC(=O)c1cccc(S(=O)(=O)N2CCN(C)CC2)c1)c1cc(Cl)ccc1O`
0

// inclusive: PARP1 L713F-nLuc/akaLuc ratio at least 0.7? input: `C=CC(=O)N1C[C@H](Nc2ncnc3[nH]ccc23)CC[C@@H]1C`
1

---

TESTED ON: PARP1 L713F-nLuc biosensor (HCT116)
ASSAY DETAILS: PARP1 L713F-nLuc/akaLuc ratio relative to DMSO control (biosensor stabilization) (fold change); higher = more PARP1 biosensor stabilization (target engagement / stabilizer), active = hit call of the paper
ASSAY CONDITIONS: stock concentration (mM; final µM = stock mM x 1): 10; 24 h
Measured PARP1 L713F-nLuc/akaLuc ratio accompanies every entry in the list below.
Keep it simple and answer with nothing but the number.

Recorded PARP1 L713F-nLuc/akaLuc ratio, per entry:
NC(=O)c1cnc2[nH]ccc2c1N[C@@H]1[C@@H]2CC3C[C@H]1C[C@@](O)(C3)C2: 1.02
CCS(=O)(=O)N1CC(CC#N)(n2cc(-c3ncnc4[nH]ccc34)cn2)C1 [Baricitinib]: 0.881

Query: PARP1 L713F-nLuc/akaLuc ratio; subject: `Cc1cc(Nc2cc3ncccc3c(N[C@@H]3C[C@H]4CC[C@@H](C3)N4CCC#N)n2)n[nH]1`
0.804

Query: PARP1 L713F-nLuc/akaLuc ratio; subject: `O=C(c1cccc(Br)c1)N1CCC(N2CCCC2)CC1`
0.886

---

TESTED ON: PARP1 L713F-nLuc biosensor (HCT116) (UniProt P09874)
Sequence (P09874 whole entry L713F, looked up): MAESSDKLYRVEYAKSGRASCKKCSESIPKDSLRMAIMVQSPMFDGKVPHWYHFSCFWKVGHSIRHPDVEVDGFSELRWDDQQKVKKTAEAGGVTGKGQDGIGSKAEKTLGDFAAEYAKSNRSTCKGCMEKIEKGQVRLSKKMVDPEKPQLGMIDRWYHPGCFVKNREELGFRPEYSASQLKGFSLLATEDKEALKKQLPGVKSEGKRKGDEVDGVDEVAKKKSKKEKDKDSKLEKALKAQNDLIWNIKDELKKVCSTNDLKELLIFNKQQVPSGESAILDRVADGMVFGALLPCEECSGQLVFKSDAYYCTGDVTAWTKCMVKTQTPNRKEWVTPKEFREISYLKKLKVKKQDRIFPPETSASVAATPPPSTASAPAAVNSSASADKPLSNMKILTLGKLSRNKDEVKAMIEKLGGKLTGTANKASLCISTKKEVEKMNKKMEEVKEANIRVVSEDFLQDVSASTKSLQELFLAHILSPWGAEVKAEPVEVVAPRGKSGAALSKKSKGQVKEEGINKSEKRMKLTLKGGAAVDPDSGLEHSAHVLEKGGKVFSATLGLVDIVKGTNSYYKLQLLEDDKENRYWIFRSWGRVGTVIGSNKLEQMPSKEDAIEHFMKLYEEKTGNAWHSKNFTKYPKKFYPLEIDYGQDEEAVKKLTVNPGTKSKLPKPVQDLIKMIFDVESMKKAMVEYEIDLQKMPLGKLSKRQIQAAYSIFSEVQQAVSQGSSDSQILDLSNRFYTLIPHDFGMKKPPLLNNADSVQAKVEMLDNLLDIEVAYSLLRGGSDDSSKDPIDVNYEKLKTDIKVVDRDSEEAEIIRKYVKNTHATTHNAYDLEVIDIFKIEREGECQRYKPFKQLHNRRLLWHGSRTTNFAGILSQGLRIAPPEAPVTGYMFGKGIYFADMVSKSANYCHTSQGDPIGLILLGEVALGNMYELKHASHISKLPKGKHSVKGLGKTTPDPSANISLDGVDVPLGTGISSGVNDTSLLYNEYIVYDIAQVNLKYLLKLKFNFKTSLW
ASSAY DETAILS: PARP1 L713F-nLuc/akaLuc ratio relative to DMSO control (biosensor stabilization) (fold change); higher = more PARP1 biosensor stabilization (target engagement / stabilizer), active = hit call of the paper
ASSAY CONDITIONS: stock concentration (mM; final µM = stock mM x 1): 10; 24 h
Counter-ions that a name gives are not always drawn.
OUTCOME MEASURE: PARP1 L713F-nLuc/akaLuc ratio
Keep it simple and answer with nothing but the number.

Recorded PARP1 L713F-nLuc/akaLuc ratio, per entry:
Cc1cnc(Nc2ccc(OCCN3CCCC3)cc2)nc1Nc1cccc(S(=O)(=O)NC(C)(C)C)c1: 0.333
Nc1nc(OCc2cc(Br)cs2)c2[nH]cnc2n1: 1.01
O=C(NCCCc1ccccc1)c1cccc(-c2cc(O)c3ncccc3c2)c1: 0.729
O[C@@H]1CO[C@H]2[C@@H]1OC[C@H]2Oc1nc2nc(-c3ccc(-c4ccccc4)cc3)c(Cl)cc2[nH]1: 0.439
CCCCCCCCc1ccc(CCC(N)(CO)CO)cc1 [Fingolimod (FTY720) HCl]: 0.577

Fill in the recorded PARP1 L713F-nLuc/akaLuc ratio for this compound, with PARP1 L713F-nLuc biosensor (HCT116) (UniProt P09874) as test system: `NC1(c2ccc(-c3nc4ccn5c(=O)[nH]nc5c4cc3-c3ccccc3)cc2)CCC1`
0.79

Fill in the recorded PARP1 L713F-nLuc/akaLuc ratio for this compound, with PARP1 L713F-nLuc biosensor (HCT116) (UniProt P09874) as test system: COc1cccc(OC)c1C(=O)OCc1cc(O)ccc1O[C@@H]1O[C@H](CO)[C@@H](O)[C@H](O)[C@H]1O [Curculigoside]
0.993

Fill in the recorded PARP1 L713F-nLuc/akaLuc ratio for this compound, with PARP1 L713F-nLuc biosensor (HCT116) (UniProt P09874) as test system: `C=C(C)[C@@H](CC=C(C)C)C[C@@]12C[C@@H](CC=C(C)C)C(C)(C)[C@@](CC=C(C)C)(C(=O)C(C(=O)c3ccc(O)c(O)c3)=C1O)C2=O`
0.631

Fill in the recorded PARP1 L713F-nLuc/akaLuc ratio for this compound, with PARP1 L713F-nLuc biosensor (HCT116) (UniProt P09874) as test system: `CCCCCOC(=O)Nc1nc(=O)n([C@@H]2O[C@H](C)[C@@H](O)[C@H]2O)cc1F`
0.759

Fill in the recorded PARP1 L713F-nLuc/akaLuc ratio for this compound, with PARP1 L713F-nLuc biosensor (HCT116) (UniProt P09874) as test system: Clc1ccc(C(c2ccccc2Cl)C(Cl)Cl)cc1 (centres undefined)
0.67

Fill in the recorded PARP1 L713F-nLuc/akaLuc ratio for this compound, with PARP1 L713F-nLuc biosensor (HCT116) (UniProt P09874) as test system: `COc1ccc2[nH]cc(/C=C3\C(=O)Nc4ccc(NC(=O)CCN5CCCCC5)cc43)c2c1`
0.931

---

TESTED ON: PARP1 L713F-nLuc biosensor (HCT116) (UniProt P09874)
ASSAY DETAILS: PARP1 L713F-nLuc/akaLuc ratio relative to DMSO control (biosensor stabilization) (fold change); higher = more PARP1 biosensor stabilization (target engagement / stabilizer), active = hit call of the paper
ASSAY CONDITIONS: stock concentration (mM; final µM = stock mM x 1): 10; 24 h
Counter-ions that a name gives are not always drawn.
Measured PARP1 L713F-nLuc/akaLuc ratio accompanies every entry in the list below.
Keep it simple and answer with nothing but the number.

Recorded PARP1 L713F-nLuc/akaLuc ratio, per entry:
CC1(N)CCN(c2cccnc2NC(=O)c2nc(-c3ncccc3C(F)(F)F)cnc2N)CC1: 0.6
Cc1cnc(-c2ccccc2C(C)C)nc1NCc1ccc(-n2ccnn2)cc1: 0.718

Fill in the recorded PARP1 L713F-nLuc/akaLuc ratio for this molecule, with PARP1 L713F-nLuc biosensor (HCT116) (UniProt P09874) as test system: `O=c1cc(N2CCOCC2)oc2c(-c3ccc4c(c3)OCCO4)csc12`
0.39

Fill in the recorded PARP1 L713F-nLuc/akaLuc ratio for this molecule, with PARP1 L713F-nLuc biosensor (HCT116) (UniProt P09874) as test system: C[C@H](Nc1cc(-c2cnn(C)c2)cc(Nc2cnccn2)n1)c1ccc(F)cc1 [Ilginatinib]
0.485

Fill in the recorded PARP1 L713F-nLuc/akaLuc ratio for this molecule, with PARP1 L713F-nLuc biosensor (HCT116) (UniProt P09874) as test system: N[C@H]1C(O)O[C@H](CO)[C@@H](O)[C@@H]1O (stereo not given in full) [Glucosamine (hydrochloride)]
1.15

---

TESTED ON: PARP1 L713F-nLuc biosensor (HCT116)
ASSAY DETAILS: PARP1 L713F-nLuc/akaLuc ratio relative to DMSO control (biosensor stabilization) (fold change); higher = more PARP1 biosensor stabilization (target engagement / stabilizer), active = hit call of the paper
ASSAY CONDITIONS: stock concentration (mM; final µM = stock mM x 1): 10; 24 h
Structures can show the parent of a compound that is named as a salt.
Measured PARP1 L713F-nLuc/akaLuc ratio accompanies every entry in the list below.
Keep it simple and answer with nothing but the number.

C[C@]1(O)C[C@@H](c2nc(-c3ccc4ccc(-c5ccccc5)nc4c3)c3c(N)nccn32)C1: 0.715
O=C(Nc1ccccc1-c1cn2c(CN3CCNCC3)csc2n1)c1cnc2ccccc2n1 [SRT 1720 (Hydrochloride)]: 1.16
O=c1cc(-c2ccc(O[C@@H]3O[C@H](CO)[C@@H](O)[C@H](O)[C@H]3O)cc2)oc2cc(O)c([C@@H]3O[C@H](CO)[C@@H](O)[C@H](O)[C@H]3O[C@@H]3OC[C@H](O)[C@H](O)[C@H]3O)c(O)c12: 0.723
Cc1ncc(F)c(Nc2n[nH]c3c2CN(C(=O)N2C[C@@H](C)N(CC4CCOCC4)C[C@@H]2C)C3(C)C)n1: 1.25
N#Cc1ccc(C(c2ccc(C#N)cc2)n2cncn2)cc1: 1.4
CCCC(=O)c1c(O)c(Cc2c(O)c(Cc3c(O)c(C)c(OC)c(C(=O)CCC)c3O)c(O)c(C(=O)[C@@H](C)CC)c2O)c(O)c(C)c1OC: 1.14
Nc1nc(NC2CC2)cc(-c2cccc(Cl)c2Cl)n1: 1.94
COc1ccc(C2(CNC(=O)c3ccc(NC(=O)c4ccco4)cc3)CCOCC2)cc1: 1.23
CCCS(=O)(=O)Nc1ccc(F)c(C(=O)c2c[nH]c3ncc(-c4ccc(Cl)cc4)cc23)c1F: 0.608
CNC[C@@H](O)COc1ccc(Cl)c(-c2nc(-c3c(C)noc3C)c(C)c(N3CC4(CCN(C(=O)OC)CC4)C3)n2)c1: 0.955

Fill in the recorded PARP1 L713F-nLuc/akaLuc ratio for this molecule, with PARP1 L713F-nLuc biosensor (HCT116) as test system: CN1CCCN(C(=O)c2cccc(-c3ccc(/C=C4/C(=O)Nc5ccc(Cl)cc54)o3)c2)CC1 [CX-6258 (hydrochloride)]
0.53

Fill in the recorded PARP1 L713F-nLuc/akaLuc ratio for this molecule, with PARP1 L713F-nLuc biosensor (HCT116) as test system: N#CCC1(n2cc(-c3ncnc4[nH]ccc34)cn2)CN(C2CCN(C(=O)c3ccnc(C(F)(F)F)c3F)CC2)C1 [Itacitinib adipate]
1.05

Fill in the recorded PARP1 L713F-nLuc/akaLuc ratio for this molecule, with PARP1 L713F-nLuc biosensor (HCT116) as test system: `CC[C@H](NC(=O)[C@H](C)NC)C(=O)N1C[C@@H](O)C[C@H]1Cc1c(-c2[nH]c3cc(F)ccc3c2C[C@@H]2C[C@H](O)CN2C(=O)[C@H](CC)NC(=O)[C@H](C)NC)[nH]c2cc(F)ccc12`
0.946

Fill in the recorded PARP1 L713F-nLuc/akaLuc ratio for this molecule, with PARP1 L713F-nLuc biosensor (HCT116) as test system: `CC(C)c1cccc(=O)c(O)c1`
0.993
